biological target: Tyrosine-protein kinase ABL2 (Homo sapiens) (UniProt P42684); conditions: at 0.1 µM;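 note: values are mean percent inhibition of ARG (ABL2), measured within the GSK PKIS set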
Sequence (P42684 whole entry): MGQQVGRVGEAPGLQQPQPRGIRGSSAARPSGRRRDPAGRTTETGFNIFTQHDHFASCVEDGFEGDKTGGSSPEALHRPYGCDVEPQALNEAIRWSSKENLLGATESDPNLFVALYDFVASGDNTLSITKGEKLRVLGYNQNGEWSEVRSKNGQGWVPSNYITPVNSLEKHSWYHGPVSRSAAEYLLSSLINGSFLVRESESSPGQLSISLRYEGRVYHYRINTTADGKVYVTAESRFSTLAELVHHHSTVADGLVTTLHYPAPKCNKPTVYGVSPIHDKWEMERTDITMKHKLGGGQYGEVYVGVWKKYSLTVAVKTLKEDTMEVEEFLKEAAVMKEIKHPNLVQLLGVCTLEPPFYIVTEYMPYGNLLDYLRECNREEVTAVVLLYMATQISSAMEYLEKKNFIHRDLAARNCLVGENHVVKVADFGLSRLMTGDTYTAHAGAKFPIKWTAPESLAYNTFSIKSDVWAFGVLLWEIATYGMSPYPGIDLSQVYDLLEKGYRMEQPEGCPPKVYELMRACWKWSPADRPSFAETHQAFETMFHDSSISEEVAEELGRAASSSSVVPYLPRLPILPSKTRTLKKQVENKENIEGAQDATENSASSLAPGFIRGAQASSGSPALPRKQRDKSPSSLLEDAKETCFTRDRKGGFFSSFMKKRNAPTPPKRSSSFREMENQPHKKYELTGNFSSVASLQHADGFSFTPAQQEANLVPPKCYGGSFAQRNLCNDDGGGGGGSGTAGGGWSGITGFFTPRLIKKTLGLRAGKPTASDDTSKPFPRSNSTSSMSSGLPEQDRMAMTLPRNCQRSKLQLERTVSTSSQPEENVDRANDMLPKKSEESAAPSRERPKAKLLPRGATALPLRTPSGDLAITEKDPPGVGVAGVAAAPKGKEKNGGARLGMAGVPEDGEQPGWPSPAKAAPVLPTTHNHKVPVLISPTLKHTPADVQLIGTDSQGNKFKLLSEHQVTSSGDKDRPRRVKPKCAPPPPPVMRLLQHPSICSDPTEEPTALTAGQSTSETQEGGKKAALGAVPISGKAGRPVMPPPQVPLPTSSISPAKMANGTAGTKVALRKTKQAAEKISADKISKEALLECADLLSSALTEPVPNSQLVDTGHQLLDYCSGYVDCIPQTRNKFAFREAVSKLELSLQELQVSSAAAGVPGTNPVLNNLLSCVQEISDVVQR
VALUE_TYPE: inhibition (%)
Expressed in %, but write only the number.

[[record]]
test_smiles = "COC(=O)Nc1nc2cc(Oc3cccc(NC(=O)Nc4cc(C(F)(F)F)ccc4F)c3)ccc2[nH]1"
reported = 4.08

[[record]]
test_smiles = "CCc1cccc(NC(=O)Nc2ccc(Oc3ccc4nc(NC(=O)OC)[nH]c4c3)cc2)c1"
reported = 14.8

[[record]]
test_smiles = "CCn1c(-c2nonc2N)nc2c(C#CC(C)(C)O)nc(OC[C@@H](N)c3ccccc3)cc21"
reported = 5.61

[[record]]
test_smiles = "CCCN1CCC(Oc2cc(Nc3nc(Nc4cccc(F)c4C(N)=O)c4cc[nH]c4n3)c(OC)cc2Cl)CC1"
reported = 4.89

[[record]]
test_smiles = "COc1ccc(-c2coc3ncnc(N)c23)cc1"
reported = 3.42


Under Tyrosine-protein kinase ABL2 (Homo sapiens) (UniProt P42684), report inhibition for Cc1cccc(-c2n[nH]cc2-c2ccc3ncccc3n2)n1 3.75

Under Tyrosine-protein kinase ABL2 (Homo sapiens) (UniProt P42684), report inhibition for CN1CCC(C(=O)Nc2n[nH]c3nnc(-c4ccccc4)cc23)CC1 0.96

Under Tyrosine-protein kinase ABL2 (Homo sapiens) (UniProt P42684), report inhibition for COc1cc(C=NNc2ncnc3c2cnn3-c2ccccc2)ccc1O 11.6

Under Tyrosine-protein kinase ABL2 (Homo sapiens) (UniProt P42684), report inhibition for NS(=O)(=O)c1cccc(-c2ccc3c(NC(=O)C4CC4)n[nH]c3c2)c1 -1.16

Under Tyrosine-protein kinase ABL2 (Homo sapiens) (UniProt P42684), report inhibition for Cc1nnc(-c2ccc(C)c(-c3ccc(C(=O)Nc4cccc(C#N)c4)cc3)c2)o1 4.17

Under Tyrosine-protein kinase ABL2 (Homo sapiens) (UniProt P42684), report inhibition for O=C1NC(=O)C(c2cccc(Cl)c2)=C1Nc1ccc(O)c(Cl)c1 2.29

Under Tyrosine-protein kinase ABL2 (Homo sapiens) (UniProt P42684), report inhibition for COc1cc2ncn(-c3cc(OCc4ccccc4C(F)(F)F)c(C(N)=O)s3)c2cc1OC 2.15

Under Tyrosine-protein kinase ABL2 (Homo sapiens) (UniProt P42684), report inhibition for COc1cc2ncn(-c3cc(O[C@H](C)c4ccccc4Cl)c(C(N)=O)s3)c2cc1OC 4.99

Under Tyrosine-protein kinase ABL2 (Homo sapiens) (UniProt P42684), report inhibition for NC(=O)c1cccc(Nc2nccc(Nc3cccc4[nH]ncc34)n2)c1 69.1

Under Tyrosine-protein kinase ABL2 (Homo sapiens) (UniProt P42684), report inhibition for CNC(=O)c1cncc(/C=C/c2c(Cl)cccc2Cl)c1 7.46

Under Tyrosine-protein kinase ABL2 (Homo sapiens) (UniProt P42684), report inhibition for COc1ccc(-c2ccncc2)cc1C(N)=O 3.92

Under Tyrosine-protein kinase ABL2 (Homo sapiens) (UniProt P42684), report inhibition for CCn1c(-c2nonc2N)nc2c(C#CC(C)(C)O)nc(CN3CCCC3)cc21 2.08

Under Tyrosine-protein kinase ABL2 (Homo sapiens) (UniProt P42684), report inhibition for Cc1ccc(NC(=O)c2ccnc(N3CCCC3)c2)cc1-c1ccc(C(=O)NCC2CC2)cc1 -0.85

###

Biological target: Non-receptor tyrosine-protein kinase TNK1 (Homo sapiens) (UniProt Q13470);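 note: reported values are mean inhibition figures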
Sequence (whole entry): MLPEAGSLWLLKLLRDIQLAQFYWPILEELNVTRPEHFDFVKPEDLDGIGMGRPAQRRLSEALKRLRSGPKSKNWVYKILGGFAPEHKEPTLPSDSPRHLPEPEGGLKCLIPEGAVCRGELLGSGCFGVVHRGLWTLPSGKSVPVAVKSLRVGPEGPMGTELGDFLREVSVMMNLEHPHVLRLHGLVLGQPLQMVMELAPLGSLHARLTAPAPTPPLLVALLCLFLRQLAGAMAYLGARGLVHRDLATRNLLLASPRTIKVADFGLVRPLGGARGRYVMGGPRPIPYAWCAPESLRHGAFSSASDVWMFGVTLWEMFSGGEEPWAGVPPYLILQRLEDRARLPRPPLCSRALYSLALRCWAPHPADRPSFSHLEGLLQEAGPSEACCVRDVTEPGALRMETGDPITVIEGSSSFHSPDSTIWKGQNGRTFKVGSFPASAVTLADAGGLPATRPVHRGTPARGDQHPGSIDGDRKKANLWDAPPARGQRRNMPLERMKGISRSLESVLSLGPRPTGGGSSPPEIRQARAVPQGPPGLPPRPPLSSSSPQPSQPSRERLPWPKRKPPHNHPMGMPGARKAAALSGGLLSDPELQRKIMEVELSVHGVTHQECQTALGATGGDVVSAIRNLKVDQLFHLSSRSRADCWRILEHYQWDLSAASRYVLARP
Conditions: at 0.1 µM
VALUE_TYPE: inhibition (%)
Expressed in %, but write only the number.

Use the examples below as a reference point.
[[record]]
compound = "CC1=C(C(=O)Nc2ccc3[nH]ncc3c2)C(c2ccc3ccccc3c2)CC(=O)N1 (centres undefined)"
value_type = "inhibition"
unit_abbreviation = "%"
reported = 3.25

[[record]]
compound = "CCCN1CCC(Oc2cc(Nc3nc(Nc4cccc(F)c4C(N)=O)c4cc[nH]c4n3)c(OC)cc2Cl)CC1"
value_type = "inhibition"
unit_abbreviation = "%"
reported = -2.66


Return inhibition (reported value) for this compound: COc1cc2ncn(-c3cc(O[C@@H](C)c4ccccc4Cl)c(C(N)=O)s3)c2cc1OC 33.8

Return inhibition (reported value) for this compound: CN1CCC(C(=O)Nc2n[nH]c3nnc(-c4ccccc4)cc23)CC1 2.98

Return inhibition (reported value) for this compound: COc1ccc(-c2nn3ncccc3c2-c2ccnc(Nc3ccc(Cl)c(C(F)(F)F)c3)n2)cc1 0.89

Return inhibition (reported value) for this compound: O=C1NC(=O)C(N2CCc3ccccc32)=C1c1ccc(Cl)cc1 4.03

Return inhibition (reported value) for this compound: CCc1cccc(NC(=O)Nc2ccc(Oc3ccc4nc(NC(=O)OC)[nH]c4c3)cc2)c1 3.34

Return inhibition (reported value) for this compound: CCn1c(-c2nonc2N)nc2ccncc21 3.44

Return inhibition (reported value) for this compound: COc1cc2ncn(-c3cc(OCc4ccccc4Cl)c(C(N)=O)s3)c2cc1OC 16.9

###

target: Vascular endothelial growth factor receptor 3 (Homo sapiens) (UniProt P35916); details: at 1 µM;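 note: mean FLT4 inhibition, averaged across replicates, from the GSK PKIS kinase inhibitor screen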
Sequence (P35916 whole entry): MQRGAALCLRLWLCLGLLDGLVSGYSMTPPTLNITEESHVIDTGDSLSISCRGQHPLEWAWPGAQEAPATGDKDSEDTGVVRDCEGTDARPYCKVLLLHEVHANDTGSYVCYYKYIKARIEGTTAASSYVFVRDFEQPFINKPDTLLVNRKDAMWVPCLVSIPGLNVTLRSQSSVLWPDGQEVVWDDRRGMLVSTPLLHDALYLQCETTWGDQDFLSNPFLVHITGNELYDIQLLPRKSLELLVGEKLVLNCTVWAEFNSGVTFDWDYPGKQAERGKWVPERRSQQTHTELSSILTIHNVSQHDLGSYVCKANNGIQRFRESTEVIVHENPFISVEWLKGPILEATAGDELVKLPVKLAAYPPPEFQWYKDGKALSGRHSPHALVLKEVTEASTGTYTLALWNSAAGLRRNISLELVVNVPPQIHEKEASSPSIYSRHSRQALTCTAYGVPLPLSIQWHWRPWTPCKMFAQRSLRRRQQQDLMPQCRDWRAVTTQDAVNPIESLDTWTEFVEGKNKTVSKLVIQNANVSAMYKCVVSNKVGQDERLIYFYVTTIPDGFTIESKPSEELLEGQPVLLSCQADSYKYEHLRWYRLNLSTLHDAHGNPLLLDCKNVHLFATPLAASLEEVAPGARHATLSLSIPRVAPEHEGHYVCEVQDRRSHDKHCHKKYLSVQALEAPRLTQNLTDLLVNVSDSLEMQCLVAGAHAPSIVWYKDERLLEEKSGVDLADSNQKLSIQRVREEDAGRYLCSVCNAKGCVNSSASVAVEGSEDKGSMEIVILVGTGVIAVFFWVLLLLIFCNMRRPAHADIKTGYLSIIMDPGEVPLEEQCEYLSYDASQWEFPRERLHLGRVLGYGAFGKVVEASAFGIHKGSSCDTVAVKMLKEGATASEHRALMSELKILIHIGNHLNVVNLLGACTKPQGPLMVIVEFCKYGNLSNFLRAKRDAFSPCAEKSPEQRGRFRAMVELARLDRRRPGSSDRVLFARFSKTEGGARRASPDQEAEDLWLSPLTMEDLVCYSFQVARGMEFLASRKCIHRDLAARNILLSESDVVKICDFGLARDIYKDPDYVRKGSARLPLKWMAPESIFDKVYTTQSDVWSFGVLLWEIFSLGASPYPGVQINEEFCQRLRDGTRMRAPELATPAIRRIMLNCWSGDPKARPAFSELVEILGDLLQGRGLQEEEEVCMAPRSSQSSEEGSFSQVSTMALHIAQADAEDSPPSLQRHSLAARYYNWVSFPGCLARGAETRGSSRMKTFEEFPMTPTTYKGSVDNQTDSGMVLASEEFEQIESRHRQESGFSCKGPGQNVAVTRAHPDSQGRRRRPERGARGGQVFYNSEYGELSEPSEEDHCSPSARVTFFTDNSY
# cutoff 20% applies to inhibition; >= gives 1, < gives -1

Determine whether measured inhibition meets or exceeds 20% for NCc1ccc(-c2nc(-c3ccc(Cl)c(O)c3)c(-c3ccncc3)[nH]2)cc1 1

Determine whether measured inhibition meets or exceeds 20% for COc1ccc(-c2nn3ncccc3c2-c2ccnc(Nc3ccc(Cl)c(C(F)(F)F)c3)n2)cc1 -1

Determine whether measured inhibition meets or exceeds 20% for O=C1NC(=O)C(c2ccccc2Cl)=C1Nc1cccc(O)c1 -1

Determine whether measured inhibition meets or exceeds 20% for CCCN1CCC=C(c2ccc(Nc3nc(Nc4ccccc4C(N)=O)c4cc[nH]c4n3)c(C)c2)C1 1

Determine whether measured inhibition meets or exceeds 20% for CS(=O)(=O)CCNCc1nc(-c2ccc3ncnc(Nc4ccc(F)c(Cl)c4)c3c2)cs1 -1

Determine whether measured inhibition meets or exceeds 20% for NS(=O)(=O)c1ccc(N/N=C2\C(=O)Nc3ccc(C(=O)NCCc4c[nH]cn4)cc32)cc1 1

Determine whether measured inhibition meets or exceeds 20% for Cc1nn(C)c2cc(N(C)c3ccnc(Nc4cccc(S(N)(=O)=O)c4)n3)ccc12 1

###

molecular target: Glycogen synthase kinase-3 alpha (Homo sapiens) (UniProt P49840); conditions: at 0.1 µM;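 note: values are mean inhibition of GSK3A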
Sequence (P49840 2-483 limits assumed): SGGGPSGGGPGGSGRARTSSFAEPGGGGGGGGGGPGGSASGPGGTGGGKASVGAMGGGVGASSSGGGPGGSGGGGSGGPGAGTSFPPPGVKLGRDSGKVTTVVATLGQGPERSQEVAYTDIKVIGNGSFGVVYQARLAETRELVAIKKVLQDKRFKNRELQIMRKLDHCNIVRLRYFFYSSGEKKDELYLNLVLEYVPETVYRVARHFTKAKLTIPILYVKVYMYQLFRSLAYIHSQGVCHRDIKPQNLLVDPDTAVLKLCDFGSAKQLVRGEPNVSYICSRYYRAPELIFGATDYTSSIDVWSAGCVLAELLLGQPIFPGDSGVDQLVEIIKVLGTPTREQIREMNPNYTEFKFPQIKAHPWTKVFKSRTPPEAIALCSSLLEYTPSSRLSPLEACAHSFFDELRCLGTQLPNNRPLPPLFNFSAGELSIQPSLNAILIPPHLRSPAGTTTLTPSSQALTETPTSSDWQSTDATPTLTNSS
A collection of molecules and their measured inhibition
Expressed in %, but write only the number.

[[record]]
test_smiles = "COc1cc2ncn(-c3cc(OCc4ccccc4Cl)c(C(N)=O)s3)c2cc1OC"
reported = 2.18


Return inhibition (reported value) for this molecule: CNC(=O)c1cncc(/C=C/c2c(Cl)cccc2Cl)c1 -0.55

Return inhibition (reported value) for this molecule: CCn1c(-c2nonc2N)nc2c(C#CC(C)(C)O)nc(OC[C@@H](N)c3ccccc3)cc21 37.4

Return inhibition (reported value) for this molecule: Nc1ncnc2occ(-c3ccc(NC(=O)Nc4cccc(C(F)(F)F)c4)cc3)c12 3.15

Return inhibition (reported value) for this molecule: [O-][S+]1CCN(Cc2ccc(-c3ccc4ncnc(Nc5ccc(OCc6ccccc6)c(F)c5)c4c3)o2)CC1 0.27

Return inhibition (reported value) for this molecule: NC(=O)c1ccc(-c2nc(-c3ccccn3)c(-c3ccc4c(c3)OCO4)[nH]2)cc1 2.47

Return inhibition (reported value) for this molecule: Nc1nc(-c2ccccn2)c(-c2ccc3ncccc3n2)s1 3.86

Return inhibition (reported value) for this molecule: Fc1cccc(COc2ccc(Nc3ncnc4cc(-c5ccc[nH]5)sc34)cc2Cl)c1 -2.13

Return inhibition (reported value) for this molecule: CS(=O)(=O)CCNCc1ccc(-c2ccc3ncnc(Nc4ccc(OCc5cccc(F)c5)c(C(F)(F)F)c4)c3c2)o1 1.48

Return inhibition (reported value) for this molecule: COc1cc2c(cc1Nc1nc(N3CCc4ccccc43)c3cc[nH]c3n1)N(C(=O)CN(C)C)CC2 0.35

Return inhibition (reported value) for this molecule: COC(=O)Nc1nc2cc(Oc3cccc(NC(=O)Nc4cc(C(F)(F)F)ccc4F)c3)ccc2[nH]1 1.75

Return inhibition (reported value) for this molecule: COc1ccccc1Nc1ncc(-c2ccccc2)o1 2.25

Return inhibition (reported value) for this molecule: COc1cc2ncn(-c3cc(O[C@@H](C)c4ccccc4Cl)c(C(N)=O)s3)c2cc1OC 3.02

Return inhibition (reported value) for this molecule: COc1ccc(-c2ccncc2)cc1C(N)=O 3

Return inhibition (reported value) for this molecule: Cc1nnc(-c2ccc(C)c(-c3ccc(C(=O)Nc4cccc(C#N)c4)cc3)c2)o1 2.41
